- system: PPARγ (Homo sapiens, UniProt P37231)
- Sequence (P37231 whole entry, species assumed): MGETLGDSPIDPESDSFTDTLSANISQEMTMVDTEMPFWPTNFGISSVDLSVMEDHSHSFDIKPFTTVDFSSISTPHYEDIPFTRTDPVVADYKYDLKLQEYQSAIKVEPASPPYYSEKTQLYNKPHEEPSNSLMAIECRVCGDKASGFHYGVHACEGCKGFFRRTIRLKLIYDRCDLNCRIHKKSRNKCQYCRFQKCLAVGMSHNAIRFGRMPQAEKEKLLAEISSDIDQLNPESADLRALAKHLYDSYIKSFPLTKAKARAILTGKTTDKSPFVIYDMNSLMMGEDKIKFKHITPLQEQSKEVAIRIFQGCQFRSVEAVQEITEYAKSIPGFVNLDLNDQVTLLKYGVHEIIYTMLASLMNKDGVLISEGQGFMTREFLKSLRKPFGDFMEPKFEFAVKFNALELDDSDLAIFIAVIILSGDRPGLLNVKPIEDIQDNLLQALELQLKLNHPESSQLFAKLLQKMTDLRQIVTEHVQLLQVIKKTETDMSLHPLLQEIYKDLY
- Sequence (P19793 whole entry partner, species assumed): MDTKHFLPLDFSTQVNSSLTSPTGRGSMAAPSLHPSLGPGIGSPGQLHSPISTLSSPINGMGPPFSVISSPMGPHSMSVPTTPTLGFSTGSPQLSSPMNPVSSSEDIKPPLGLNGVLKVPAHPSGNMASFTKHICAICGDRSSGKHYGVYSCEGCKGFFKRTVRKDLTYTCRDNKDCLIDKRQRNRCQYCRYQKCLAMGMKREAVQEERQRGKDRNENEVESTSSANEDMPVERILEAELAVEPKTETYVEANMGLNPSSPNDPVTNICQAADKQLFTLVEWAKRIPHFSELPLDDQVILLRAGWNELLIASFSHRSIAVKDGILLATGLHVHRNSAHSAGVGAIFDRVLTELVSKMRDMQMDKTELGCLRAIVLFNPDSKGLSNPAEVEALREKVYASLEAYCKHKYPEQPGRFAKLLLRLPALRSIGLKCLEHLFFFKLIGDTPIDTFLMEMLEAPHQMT
- assay notes: PPARγ reporter (CTF)/functional assay in CV1 cells
- study conditions: CV1 cells, luciferase reporter, 24 hours
parameter: pEC50
The value called pEC50 is obtained by taking minus log10 of the concentration in mol/L.

For PPARγ (Homo sapiens, UniProt P37231), give the measured pEC50 of the entry CC#C[C@@H](CC(=O)O)c1ccc(OCc2ccc3nc(-c4c(C)cccc4C)nn3c2)cc1
5.59

----------
- system: hGPR-40 (hFFAR1) (Homo sapiens, UniProt O14842)
- Sequence (O14842 whole entry): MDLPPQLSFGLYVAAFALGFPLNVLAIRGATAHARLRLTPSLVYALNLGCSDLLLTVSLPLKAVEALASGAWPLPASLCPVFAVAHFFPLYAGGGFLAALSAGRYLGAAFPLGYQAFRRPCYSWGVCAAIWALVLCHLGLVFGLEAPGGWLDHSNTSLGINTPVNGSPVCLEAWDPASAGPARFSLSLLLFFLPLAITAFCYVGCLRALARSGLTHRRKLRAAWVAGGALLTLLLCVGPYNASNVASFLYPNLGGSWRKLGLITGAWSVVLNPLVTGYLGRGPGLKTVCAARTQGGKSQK
- Sequence (P32121 whole entry partner): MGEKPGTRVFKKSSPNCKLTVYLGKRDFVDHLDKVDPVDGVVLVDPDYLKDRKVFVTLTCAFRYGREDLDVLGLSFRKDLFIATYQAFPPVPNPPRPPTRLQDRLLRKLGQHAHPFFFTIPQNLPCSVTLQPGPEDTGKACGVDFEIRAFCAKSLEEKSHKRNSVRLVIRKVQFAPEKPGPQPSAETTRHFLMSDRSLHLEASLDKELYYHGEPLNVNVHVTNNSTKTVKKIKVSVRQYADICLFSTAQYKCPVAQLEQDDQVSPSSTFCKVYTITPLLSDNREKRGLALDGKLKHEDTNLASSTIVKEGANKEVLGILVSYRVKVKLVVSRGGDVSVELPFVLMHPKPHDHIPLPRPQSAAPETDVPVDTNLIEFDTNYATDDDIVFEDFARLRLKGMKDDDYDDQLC
- assay notes: Human beta-arrestin agonist assay with 1% FBS
- study conditions: hEK293-hFFAR1 cells, 1% FBS, 90 min; read-out: hGPR-40 b-arrestin EC50
parameter: pEC50
The value called pEC50 is obtained by taking minus log10 of the concentration in mol/L.

Give the reported value of pEC50 for this record: CC#C[C@@H](CC(=O)O)c1ccc(OCc2ccc3nc(-c4c(C)cccc4C)nn3c2)cc1
7.35
